tested on: V79; assay: Clonogenic cytotoxicity against Hamster V-79 cells; assay type: cell-based; settings: Cricetulus griseus
Assay metric: IC50 (µg/mL)
Numeric answer only, unit µg/mL assumed.

The following compounds have reported results that may help.
Endpoint output: IC50 of CC(C)(N)[C@@H]1CCN(c2cc3c(cc2F)c(=O)c(C(=O)O)cn3C2CC2)C1.Cl . Value?
190

Here is the next compound: C[C@@H](N)C1CCN(c2nc3c(cc2F)c(=O)c(C(=O)O)cn3C2CC2)C1 (stereo partly drawn)
33

Here is the next compound: C[C@H](N)C1CCN(c2nc3c(cc2F)c(=O)c(C(=O)O)cn3C2CC2)C1 (stereo partly drawn)
100

Others:
Endpoint output: IC50 of NCC1CCN(c2nc3c(cc2F)c(=O)c(C(=O)O)cn3C2CC2)C1 (stereo not drawn) . Value?
42

Here is the next compound: COc1c(N2CC[C@@H](C(C)(C)N)C2)c(F)cc2c(=O)c(C(=O)O)cn(C3CC3)c12.Cl
18

Here is the next compound: CC(C)(N)[C@@H]1CCN(c2nc3c(cc2F)c(=O)c(C(=O)O)cn3C2CC2)C1.Cl
130

###

system: Staphylococcus aureus; experiment: Minimum inhibitory concentration against Staphylococcus aureus UC-76; format: functional
Assay metric: MIC (ng/mL)
Numeric answer only, unit ng/mL assumed.

The following compounds have reported results that may help.
Endpoint output: MIC of CC(C)(N)[C@H]1CCN(c2cc3c(cc2F)c(=O)c(C(=O)O)cn3C2CC2)C1.Cl . Value?
100

Here is the next compound: C[C@@H](N)C1CCN(c2nc3c(cc2F)c(=O)c(C(=O)O)cn3C2CC2)C1 (stereo not given in full)
3

Others:
Endpoint output: MIC of O=C(O)c1cn(C2CC2)c2cc(N3CCNCC3)c(F)cc2c1=O [CIPROFLOXACIN] . Value?
200

Here is the next compound: COc1c(N2CC[C@@H](C(C)(C)N)C2)c(F)cc2c(=O)c(C(=O)O)cn(C3CC3)c12.Cl
3

Here is the next compound: CC(C)(N)[C@@H]1CCN(c2nc3c(cc2F)c(=O)c(C(=O)O)cn3C2CC2)C1.Cl
3

###

Measured MIC, listed per entry.
tested on: Staphylococcus aureus; experiment: Minimum inhibitory concentration against Staphylococcus aureus UC-76; type: functional
Kindly write the number and append the unit.

The following compounds have reported results that may help.
Endpoint output: MIC of NC1CCN(c2c(F)cc3c(=O)c(C(=O)O)cn(C4CC4)c3c2F)C1 (stereo not given) . Value?
0.025 µg/mL

Here is the next compound: CC(C)(N)[C@H]1CCN(c2nc3c(cc2F)c(=O)c(C(=O)O)cn3-c2ccc(F)cc2F)C1.Cl
0.1 µg/mL

Here is the next compound: NCC1CCN(c2c(F)cc3c(=O)c(C(=O)O)cn(C4CC4)c3c2Cl)C1 (stereo not given)
0.003 µg/mL

Here is the next compound: CC(C)(N)[C@H]1CCN(c2nc3c(cc2F)c(=O)c(C(=O)O)cn3C2CC2)C1.Cl
0.025 µg/mL

Moving on to another compound below.
Endpoint output: MIC of NCC1CCN(c2cc3c(cc2F)c(=O)c(C(=O)O)cn3C2CC2)C1 (stereo not given) . Value?
0.006 µg/mL

###

experiment: The no effect dose (NED) for phototoxicity in mouse; assay type: organism-based; details: in vivo, read-out: NED
Assay metric: NOAEL (mg/kg)
Numeric answer only, unit mg/kg assumed.

The following compounds have reported results that may help.
Endpoint output: NOAEL of NC1CCN(c2c(F)cc3c(=O)c(C(=O)O)cn(C4CC4)c3c2F)C1 (stereo unspecified) . Value?
3

Here is the next compound: C[C@H](N)C1CCN(c2nc3c(cc2F)c(=O)c(C(=O)O)cn3C2CC2)C1 (stereo partly specified)
67

Here is the next compound: CC(C)(N)[C@H]1CCN(c2nc3c(cc2F)c(=O)c(C(=O)O)cn3C2CC2)C1.Cl
55

Here is the next compound: C[C@@H](N)C1CCN(c2nc3c(cc2F)c(=O)c(C(=O)O)cn3C2CC2)C1 (stereo partly specified)
30

Moving on to another compound below.
Endpoint output: NOAEL of CC(C)(N)[C@@H]1CCN(c2nc3c(cc2F)c(=O)c(C(=O)O)cn3C2CC2)C1.Cl . Value?
73

###

Measured MIC, listed per entry.
tested on: Staphylococcus aureus; assay: Minimum inhibitory concentration against Staphylococcus aureus UC-76; assay type: functional
Numeric answer only, unit ng/mL assumed.

Endpoint output: MIC of CC(C)(N)[C@H]1CCN(c2c(F)cc3c(=O)c(C(=O)O)cn(C4CC4)c3c2Cl)C1.Cl . Value?
13

###

Measured MIC, listed per entry.
tested on: Staphylococcus aureus; test: Minimum inhibitory concentration against Staphylococcus aureus UC-76; format: functional
Numeric answer only, unit ng/mL assumed.

Endpoint output: MIC of COc1c(N2CC[C@H](C(C)(C)N)C2)c(F)cc2c(=O)c(C(=O)O)cn(C3CC3)c12.Cl . Value?
13

Here is the next compound: COc1c(N2CCC(CN)C2)c(F)cc2c(=O)c(C(=O)O)cn(C3CC3)c12 (stereo not drawn)
3

Here is the next compound: CC(C)(N)[C@@H]1CCN(c2c(F)cc3c(=O)c(C(=O)O)cn(C4CC4)c3c2Cl)C1.Cl
3

Here is the next compound: NCC1CCN(c2nc3c(cc2F)c(=O)c(C(=O)O)cn3C2CC2)C1 (stereo not drawn)
3

Here is the next compound: CC(C)(N)[C@@H]1CCN(c2cc3c(cc2F)c(=O)c(C(=O)O)cn3C2CC2)C1.Cl
6

Here is the next compound: NCC1CCN(c2nc3c(cc2F)c(=O)c(C(=O)O)cn3-c2ccc(F)cc2F)C1 (stereo not drawn)
13

Here is the next compound: C[C@H](N)C1CCN(c2nc3c(cc2F)c(=O)c(C(=O)O)cn3C2CC2)C1 (stereo partly drawn)
6

Here is the next compound: CC(C)(N)[C@@H]1CCN(c2nc3c(cc2F)c(=O)c(C(=O)O)cn3-c2ccc(F)cc2F)C1.Cl
25

# credit: ChEMBL document CHEMBL1127665
